# credit: PubChem BioAssay (NCI)

System: ACHN renal
Test: NCI tumour cell line growth inhibition, 48 h
TGI values for the compounds below.

1. CCO[C@@H]1OC(=O)[C@](C)(C(C)=O)[C@@H]1C; > 100 µM
2. COCCn1cc(-c2csc(-c3c[nH]c4ccccc34)n2)c2cccnc21; > 100 µM
3. CC(C)CCCC(C)[C@H]1CC[C@H]2NCCCC[C@]12C (stereo partly specified); 4.78 µM
4. COc1ccc(C=C2C(=O)OC(C)(C)OC2=O)cc1OC; > 100 µM
5. O=c1oc2ccccc2c(O)c1C(c1ccc(O)cc1)c1c(O)c2ccccc2oc1=O; > 100 µM

Q: For the record COC(CC1(CCNc2ccccc2)C(=O)N(COCC[Si](C)(C)C)c2ccccc21)OC (stereo unspecified) , what value of TGI is listed for ACHN renal?
Result: 37.1 µM
